# credit: patent US8883963B2

- assay-info: Stability in human plasma
- Assay type: in vitro ADME
- test-context: pH 7.8; 2 μM peptidomimetic, pooled human plasma, 37° C.; read-out: half-life (t1/2) when incubated with human plasma
quantity: half-life at 2 μM (h)
All answers are understood in h, so give the number only.

*Q* Return reported half-life at 2 μM. Input compound: CCc1cc(OC)ccc1-c1ccc(CC(NC(=O)[C@H](CC(=O)O)NC(=O)[C@H](CO)NC(=O)[C@@H](NC(=O)[C@H](Cc2ccccc2)NC(=O)[C@@H](NC(=O)CNC(=O)[C@H](CCC(N)=O)NC(=O)C2(NC(=O)[C@@H](N)Cc3c[nH]cn3)CC2)[C@@H](C)O)[C@@H](C)O)C(=O)NC(CCCc2ccc(F)cc2F)C(N)=O)cc1 (single isomer, unassigned)
*A* 8

*Q* Return the recorded half-life at 2 μM value; entry: CCc1cc(OC)ccc1-c1ccc(CC(NC(=O)[C@H](CC(=O)O)NC(=O)[C@H](CO)NC(=O)[C@@H](NC(=O)C(C)(Cc2ccccc2F)NC(=O)[C@@H](NC(=O)CNC(=O)C(CCC#N)NC(=O)C(C)(C)NC(=O)[C@@H](N)Cc2c[nH]cn2)[C@H](C)O)[C@H](C)O)C(=O)N(C)C(CCCc2ccccc2)C(N)=O)cc1 (single isomer, unassigned)
*A* 8

====

- assay-info: Stability in human plasma
- Type: in vitro ADME
- test-context: 2 μM peptidomimetic, pooled human plasma, 37° C., 24 h
quantity: % degradation of peptidomimetics in 24 h when incubated with human plasma

*Q* Determine its reported % degradation of peptidomimetics in 24 h when incubated with human plasma: CCc1cc(OC)ccc1-c1ccc(CC(NC(=O)[C@H](CC(=O)O)NC(=O)[C@H](CO)NC(=O)[C@@H](NC(=O)[C@H](Cc2ccccc2)NC(=O)[C@@H](NC(=O)CNC(=O)[C@H](CCC(N)=O)NC(=O)[C@H](CO)NC(=O)[C@@H](N)Cc2c[nH]cn2)[C@@H](C)O)[C@@H](C)O)C(=O)NC(CCCc2ccccc2Cl)C(N)=O)cc1 (single isomer, unassigned)
*A* 80%

====

- Test system: C57BL/6J mice (mild hyperglycemic)
- assay-info: In vivo glucose reduction, acute single dose 120-min time-course, i.p. route
- Parameters: species or system mouse; unit not given here
- test-context: male C57BL/6J mice, 30 nM/kg i.p., 0 min
Non-standard residues stand in square brackets, D forms with d. Residues, ends and D or L forms follow the SMILES beside them. ξ: configuration not given here. ξBip(2'-Et-4'-OMe) = CCc1cc(OC)ccc1-c1ccc(CC(N)C(=O)O)cc1; ξNva(5-(3,5-Me2-Ph)) = Cc1cc(C)cc(CCCC(N)C(=O)O)c1; ξNva(5-(3-Cl-Ph)) = NC(CCCc1cccc(Cl)c1)C(=O)O; Aib = CC(C)(N)C(=O)O
quantity: blood glucose levels
Answer with the value's number alone.

CCc1cc(OC)ccc1-c1ccc(CC(NC(=O)[C@H](CC(=O)O)NC(=O)[C@H](CO)NC(=O)[C@@H](NC(=O)C(C)(Cc2ccccc2F)NC(=O)[C@@H](NC(=O)CNC(=O)C(CCC#N)NC(=O)C(C)(C)NC(=O)[C@@H](N)Cc2c[nH]cn2)[C@H](C)O)[C@H](C)O)C(=O)N(C)C(CCCc2ccccc2)C(N)=O)cc1 (single isomer, unassigned) : 181
CCc1cc(OC)ccc1-c1ccc(CC(C(=O)N(C)C(CCCc2ccccc2)C(N)=O)N(C)C(=O)[C@H](CC(=O)O)N(C)C(=O)[C@H](CO)NC(=O)[C@@H](NC(=O)C(C)(Cc2ccccc2F)NC(=O)[C@@H](NC(=O)CNC(=O)C(CCC#N)NC(=O)C(C)(C)NC(=O)[C@@H](N)Cc2c[nH]cn2)[C@H](C)O)[C@H](C)O)cc1 (single isomer, unassigned) : 181
CCc1cc(OC)ccc1-c1ccc(CC(NC(=O)[C@H](CC(=O)O)NC(=O)[C@H](CO)NC(=O)[C@@H](NC(=O)[C@H](Cc2ccccc2)NC(=O)[C@@H](NC(=O)CNC(=O)[C@H](CCC(N)=O)NC(=O)C(C)(C)NC(=O)[C@@H](N)Cc2c[nH]cn2)[C@@H](C)O)[C@@H](C)O)C(=O)NC(CCCc2cc(C)cc(C)c2)C(N)=O)cc1 (stereo partly drawn) [Seq. ID. 18] (H-H[Aib]QGTFTSD[ξBip(2'-Et-4'-OMe)][ξNva(5-(3,5-Me2-Ph))]-NH2) : 183
CCc1cc(OC)ccc1-c1ccc(CC(C(=O)N(C)C(CCCc2ccccc2)C(N)=O)N(C)C(=O)[C@H](CC(=O)O)NC(=O)[C@H](CO)NC(=O)[C@@H](NC(=O)C(C)(Cc2ccccc2F)NC(=O)[C@@H](NC(=O)CNC(=O)C(CCC#N)NC(=O)C(C)(C)NC(=O)[C@@H](N)Cc2c[nH]cn2)[C@H](C)O)[C@H](C)O)cc1 (single isomer, unassigned) : 183

*Q* Retrieve blood glucose levels on C57BL/6J mice (mild hyperglycemic); query CCc1cc(OC)ccc1-c1ccc(CC(NC(=O)[C@H](CC(=O)O)NC(=O)[C@H](CO)NC(=O)[C@@H](NC(=O)[C@H](Cc2ccccc2)NC(=O)[C@@H](NC(=O)CNC(=O)[C@H](CCC(N)=O)NC(=O)[C@H](C)NC(=O)[C@@H](N)Cc2c[nH]cn2)[C@@H](C)O)[C@@H](C)O)C(=O)NC(CCCc2cccc(Cl)c2)C(N)=O)cc1 (stereo partly drawn) [Seq. ID. 15] (H-HAQGTFTSD[ξBip(2'-Et-4'-OMe)][ξNva(5-(3-Cl-Ph))]-NH2)
*A* 180

*Q* Under C57BL/6J mice (mild hyperglycemic): report blood glucose levels of CCc1cc(OC)ccc1-c1ccc(CC(NC(=O)[C@H](CC(=O)O)NC(=O)[C@H](CO)NC(=O)[C@@H](NC(=O)C(C)(Cc2ccccc2F)NC(=O)[C@@H](NC(=O)CNC(=O)C(CCC#N)NC(=O)C(C)(C)NC(=O)[C@@H](N)Cc2c[nH]cn2)[C@@H](C)O)[C@H](C)O)C(=O)NC(CCCc2ccccc2F)C(N)=O)cc1 (single isomer, unassigned) .
*A* 182
